- Assay Text: Half life in Sprague-Dawley rat at 10 mg/kg, po by LC-MS/MS method
- Assay type: ADME, organism-based
- Condition: in vivo

| Given Smiles | half-life [h] |
| --- | --- |
| O=C(O)CNC(=O)C1=C(O)CCN(Cc2ccc(Oc3ccc(Cl)cc3)nc2)C1=O | 2.3 |

----------
- Assay Text: Drug metabolism in Sprague-Dawley rat hepatocytes assessed as oxidative metabolism at 1 uM after 1 hr by LC-MS/MS method
- Type: ADME, cell-based, Hepatocyte
- Condition: read-out: Drug metabolism
hey, just use true (1) if measured metabolised at 1 h, 1 µM is less than 30%, otherwise false (0)

| Molecule | Qualitative Label |
| --- | --- |
| O=C(O)CNC(=O)C1=C(O)CC2(CCC2)N(Cc2ccc(-c3ccccc3)cc2)C1=O | true (1) |
| O=C(O)CNC(=O)C1=C(O)CC2(CCCCC2)N(Cc2ccc(-c3ccccc3)cc2)C1=O | false (0) |
| CC1CC(O)=C(C(=O)NCC(=O)O)C(=O)N1Cc1ccc(-c2ccccc2)cc1 (stereo not given) | true (1) |
| O=C(O)CNC(=O)C1=C(O)CCN(Cc2ccc(-c3ccccc3)cc2)C1=O | false (0) |
| CC1CN(Cc2ccc(-c3ccccc3)cc2)C(=O)C(C(=O)NCC(=O)O)=C1O (stereo not given) | true (1) |

----------
- Assay Text: Cmax in Sprague-Dawley rat at 10 mg/kg, po by LC-MS/MS method
- Type: ADME, organism-based
- Design: dose 10 mg/kg, route oral
- Condition: in vivo

| Given Smiles | Cmax (ng/mL) |
| --- | --- |
| O=C(O)CNC(=O)C1=C(O)CCN(Cc2ccc(Oc3ccc(Cl)cc3)nc2)C1=O | 10700 |

----------
- Assay Text: Drug metabolism in beagle dog hepatocytes assessed as oxidative metabolism at 1 uM after 4 hrs by LC-MS/MS method
- Type: ADME, cell-based, Canis lupus familiaris, Hepatocyte
- Condition: read-out: Drug metabolism
Measured Endpoint: metabolised at 4 h, 1 µM (%)

| Given Smiles | Units Symbol | Readout Number |
| --- | --- | --- |
| O=C([O-])CNC(=O)C1=C(O)CCN(Cc2ccc(Oc3ccc(Cl)cc3)nc2)C1=O.[Na+] | % | -0.3 |

----------
- Assay Text: Half life in Sprague-Dawley rat at 1 mg/kg, iv by LC-MS/MS method
- Assay type: ADME, organism-based
- Condition: in vivo

| Given Smiles | Units Symbol | half-life |
| --- | --- | --- |
| O=C(O)CNC(=O)C1=C(O)CCN(Cc2ccc(Oc3ccc(Cl)cc3)nc2)C1=O | h | 3.1 |

----------
- Assay Text: Total clearance in Sprague-Dawley rat at 1 mg/kg, iv by LC-MS/MS method
- Format: ADME, organism-based
- Condition: in vivo
Measured Endpoint: clearance

| Given Smiles | Result |
| --- | --- |
| O=C(O)CNC(=O)C1=C(O)CCN(Cc2ccc(Oc3ccc(Cl)cc3)nc2)C1=O | 7.28 mL/min/kg |

----------
- Assay Text: Volume of distribution at steady state in Sprague-Dawley rat at 1 mg/kg, iv by LC-MS/MS method
- Type: ADME, organism-based
- Condition: in vivo, read-out: Vdss

| Given Smiles | Vd / L/kg |
| --- | --- |
| O=C(O)CNC(=O)C1=C(O)CCN(Cc2ccc(Oc3ccc(Cl)cc3)nc2)C1=O | 0.904 |
